- PROTOCOL_DETAILS: Tmax in dog at 3 mg/kg, po
- Format: ADME, organism-based, Canis lupus familiaris
- TEST_PARAMETERS: in vivo
MEASURED_PARAMETER: Tmax (h)

1: O=S(=O)(Nc1nncs1)c1cc(Cl)c(Oc2ccc(C(F)(F)F)cc2-c2ccnnc2)cc1F
2: Nc1[nH]ncc1-c1cc(Cl)ccc1Oc1cc(F)c(S(=O)(=O)Nc2cscn2)cc1Cl
Hello, I am sorting some records. Could you say if 1 or 2 has the smaller Tmax value? In your reply, give the label of the chosen option.
2
(2: 0.9 h, 1: 1.5 h)

* * *

- PROTOCOL_DETAILS: physchem
- TEST_PARAMETERS: octanol/water, pH 7.4
MEASURED_PARAMETER: logD

In the examples that follow, each entry is paired with its recorded logD.
N#Cc1cc(S(=O)(=O)Nc2ncns2)ccc1Oc1ccc(C(F)(F)F)cc1-c1ccncn1; 0.9
CN1CC(n2nccc2-c2cc(Cl)ccc2Oc2cc(F)c(S(=O)(=O)Nc3ncns3)cc2F)C1; 1
CN1CC(n2nccc2-c2cc(Cl)ccc2Oc2cc(F)c(S(=O)(=O)Nc3cscn3)cc2F)C1; 1.3
Nc1n[nH]cc1-c1cc(C(F)(F)F)ccc1Oc1cc(F)c(S(=O)(=O)Nc2cscn2)cc1Cl; 2.2
CCN1CC(n2nccc2-c2cc(Cl)ccc2Oc2cc(F)c(S(=O)(=O)Nc3cscn3)cc2F)C1; 1.6

A: N#Cc1cc(S(=O)(=O)Nc2ncns2)ccc1Oc1ccc(C(F)(F)F)cc1-c1ccnnc1
B: N#Cc1cc(S(=O)(=O)Nc2ncns2)ccc1Oc1ccc(Cl)cc1-c1ccnc(N)c1
C: N#Cc1cc(S(=O)(=O)Nc2ncns2)ccc1Oc1ccc(Cl)cc1-c1cn[nH]c1N
List by increasing logD. Order the labels as requested and list them.
A, C, B
(A: 0.7, C: 1, B: 1.6)

* * *

- PROTOCOL_DETAILS: Volume of distribution at steady state in dog at 0.1 mg/kg, iv
- Assay type: ADME, organism-based, Canis lupus familiaris
- TEST_PARAMETERS: in vivo, read-out: Vdss
MEASURED_PARAMETER: Vd (L/kg)

N#Cc1cc(S(=O)(=O)Nc2ncns2)ccc1Oc1ccc(Cl)cc1-c1cn[nH]c1; 0.5
CCN1CC(n2nccc2-c2cc(Cl)ccc2Oc2ccc(S(=O)(=O)Nc3cscn3)cc2C#N)C1 [PF-05150122]; 0.9
Cc1[nH]ncc1-c1cc(C(F)(F)F)ccc1Oc1ccc(S(=O)(=O)Nc2ncns2)cc1C#N; 1.8
Nc1[nH]ncc1-c1cc(Cl)ccc1Oc1cc(F)c(S(=O)(=O)Nc2cscn2)cc1Cl [PF-05089771]; 0.2

I: N#Cc1cc(S(=O)(=O)Nc2ncns2)ccc1Oc1ccc(C(F)(F)F)cc1-c1ccnnc1
II: O=S(=O)(Nc1nncs1)c1cc(Cl)c(Oc2ccc(C(F)(F)F)cc2-c2ccnnc2)cc1F [PF-05186462]
Field: entry with larger Vd (options I / II ). In your reply, give the label of the chosen option.
I
(I: 1.2 L/kg, II: 0.5 L/kg)

* * *

- PROTOCOL_DETAILS: Volume of distribution at steady state in rat at 1 mg/kg, iv
- Format: ADME, organism-based
- TEST_PARAMETERS: in vivo, read-out: Vdss
MEASURED_PARAMETER: Vd (L/kg)

CCN1CC(n2nccc2-c2cc(Cl)ccc2Oc2ccc(S(=O)(=O)Nc3cscn3)cc2C#N)C1; 29.7
N#Cc1cc(S(=O)(=O)Nc2ncns2)ccc1Oc1ccc(C(F)(F)F)cc1-c1ccnnc1; 1.3
N#Cc1cc(S(=O)(=O)Nc2ncns2)ccc1Oc1ccc(Cl)cc1-c1cn[nH]c1; 2.3

P: Cc1[nH]ncc1-c1cc(C(F)(F)F)ccc1Oc1ccc(S(=O)(=O)Nc2ncns2)cc1C#N
Q: O=S(=O)(Nc1nncs1)c1cc(Cl)c(Oc2ccc(C(F)(F)F)cc2-c2ccnnc2)cc1F
Hello, I am sorting some records. Could you say if P or Q has the smaller Vd value? In your reply, give the label of the chosen option.
P
(P: 6.3 L/kg, Q: 11 L/kg)
